Below: a set of entries, each annotated with reported inhibition at 20 µM.
# TESTED_ON: Rac-1 (Homo sapiens, UniProt P63000)
# Construct: made in house
# EXPERIMENTAL_DETAILS: Ras GTP Binding Domain Inhibition Assay (Ras Superfamily Assay)
# SETUP_CONDITIONS: read-out: Rac-1: % inh.

Please review the following examples before continuing.
>>> result("Cc1c(-c2ccn(C)n2)cn2nc(-c3nccn3C)nc(Nc3cc(OC(F)(F)F)ccn3)c12")
"76 to 100%"
>>> result("Cc1c(-c2ccn(C(C)C)n2)cn2nc(-c3nccn3C)nc(Nc3nnc(C4CC4)o3)c12")
"50 to 75%"
>>> result("COc1ccnc(Nc2nc(-c3nccn3C)nn3cc(-c4cccnc4)c(-c4ccccn4)c23)c1")
"76 to 100%"
>>> result("COc1cccc(Nc2nc(-c3ccccn3)nn3cc(-c4ccn(C(C)C)n4)c(C)c23)n1")
"0%"
>>> result("Cc1c(-c2ccn(C(C)C)n2)cn2nc(-c3nccn3C)nc(Nc3noc(C4CC4)n3)c12")
"26 to 49%"
>>> result("CO[C@H]1CC[C@H](Nc2nc(-c3nccn3C)nn3cc(-c4ccn(C)n4)c(C(=O)NCC(F)(F)F)c23)C1 (racemic)")
"1 to 25%"
>>> result("Cc1c(-c2ccn(C(C)C)n2)cn2nc(-c3nccn3C)nc(Nc3ccn(C)n3)c12")
"76 to 100%"

Could you now look at the following compound, please?
Request: I would be grateful if you could share the reported inhibition at 20 µM for Cc1c(-c2ccn(C)n2)cn2nc(-c3nccn3C)nc(Nc3cc(-c4ccccn4)[nH]n3)c12 .
Response: 76 to 100%

====

Reported inhibition at 20 µM values for the following compounds.
# TESTED_ON: Rheb (Homo sapiens, UniProt Q15382)
# Construct: made in house
# Sequence (Q15382 whole entry): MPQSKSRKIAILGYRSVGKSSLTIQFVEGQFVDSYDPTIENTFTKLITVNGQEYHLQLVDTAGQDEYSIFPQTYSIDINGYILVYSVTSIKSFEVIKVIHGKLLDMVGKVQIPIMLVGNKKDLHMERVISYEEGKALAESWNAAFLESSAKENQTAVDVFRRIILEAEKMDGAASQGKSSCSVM
# EXPERIMENTAL_DETAILS: Rheb GTP Binding Domain Inhibition Assay
# SETUP_CONDITIONS: read-out: Rheb: % inh.

Request: Need inhibition at 20 µM of COCCO[C@H]1C[C@H](Nc2nc(-c3nccn3C)nn3cc(-c4cccc(OC)c4F)c(-c4ccccc4)c23)C1 [Compound 44] , thanks.
Response: 26 to 49%

Request: May I ask what inhibition at 20 µM has been recorded for Cc1c(-c2ccn(C(C)C)n2)cn2nc(-c3nccn3C)nc(Nc3nc(C4CC4)no3)c12 [Compound 70] ?
Response: 1 to 25%

Request: inhibition at 20 µM lookup needed for COc1cccc(-c2cn3nc(-c4nccn4C)nc(N[C@H]4C[C@H](OC)C4)c3c2-c2ccccc2)c1F [Compound 42] , thanks.
Response: 1 to 25%

Request: For COc1cc(Nc2nc(-c3nccn3C)nn3cc(-c4cccc(OC)n4)c(C)c23)ncn1 [Compound 65] , what is its reported inhibition at 20 µM?
Response: 0%

Request: Can you look up the measured inhibition at 20 µM of COc1ccc(Nc2nc(-c3nccn3C)nn3cc(-c4ccn(C(C)C)n4)c(C)c23)nn1 [Compound 74] for me?
Response: 0%

Request: Item under review: Cc1c(-c2ccn(C(C)C)n2)cn2nc(-c3nccn3C)nc(Nc3cc(C4CC4)no3)c12 [Compound 69] . Reported inhibition at 20 µM?
Response: 1 to 25%

Request: Looking for the measured inhibition at 20 µM of COc1cc(Nc2nc(-c3nccn3C)nn3cc(-c4cccnc4)c(C)c23)ncn1 [Compound 48] , can you help?
Response: 50 to 75%

Request: Need inhibition at 20 µM of Cc1c(-c2ccn(C(C)C)n2)cn2nc(-c3nccn3C)nc(Nc3nnco3)c12 [Compound 59] , thanks.
Response: 50 to 75%

Reference for the values: patent US12459951B2
